Data provenance is ChEMBL document CHEMBL3988442.

Target: Shiga toxin 2 (Escherichia coli O157:H7) (UniProt P09385+P09386)
Assay: E. coli 0.157:H7 Shiga Toxin SOP - stx2 screening assay
Format: functional
Design: scale not given: direction of the effect not stated beside the values
Settings: 30 µM
Please provide measured Percent Effect for the entries that follow.
Provide the reading as a plain figure in %.

Exercise: Please indicate Percent Effect recorded for Cc1nc(CN2CCCC(CCNS(C)(=O)=O)C2)c[nH]1 (centres undefined)
Solution: 13

Exercise: State, in one line, measured Percent Effect of CC(OCC1CC1)C(=O)N1CCCN(c2ncccc2C#N)CC1 (centres undefined)
Solution: 27.5

Exercise: Answer with the recorded Percent Effect for the molecule listed here: CC(=O)N1CCC2(CC1)COCCN2CCN(C)C
Solution: 1.75

Exercise: Answer with reported Percent Effect of CCCS(=O)(=O)N1CCC2(CC1)CN(c1ccccn1)CCO2
Solution: -46.8

* * *

Would you kindly list Percent Effect for each of these compounds?
Target: Aspartate--tRNA(Asp/Asn) ligase (Mycobacterium tuberculosis (strain ATCC 25618 / H37Rv)) (UniProt P9WFW3); further: in the data most compounds retested in dose-response had high values
Sequence (P9WFW3 whole entry): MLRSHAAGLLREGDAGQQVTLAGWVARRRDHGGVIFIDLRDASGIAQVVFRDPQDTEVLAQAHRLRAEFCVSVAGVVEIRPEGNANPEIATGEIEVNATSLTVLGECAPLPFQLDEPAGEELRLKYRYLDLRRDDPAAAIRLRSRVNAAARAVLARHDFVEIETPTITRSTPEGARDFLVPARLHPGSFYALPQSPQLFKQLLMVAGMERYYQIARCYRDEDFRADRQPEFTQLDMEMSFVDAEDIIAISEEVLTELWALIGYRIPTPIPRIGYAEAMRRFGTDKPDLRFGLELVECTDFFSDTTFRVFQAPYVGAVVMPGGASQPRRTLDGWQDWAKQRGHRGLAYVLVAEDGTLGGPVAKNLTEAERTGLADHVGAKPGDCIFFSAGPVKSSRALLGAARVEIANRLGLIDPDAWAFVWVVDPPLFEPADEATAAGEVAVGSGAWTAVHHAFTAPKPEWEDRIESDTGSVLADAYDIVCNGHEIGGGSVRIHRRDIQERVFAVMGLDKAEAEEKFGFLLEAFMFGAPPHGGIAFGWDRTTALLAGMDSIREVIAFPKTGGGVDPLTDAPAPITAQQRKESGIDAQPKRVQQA
Assay: Assay for Asp RNA synthetase-1 from Mycobacterium tuberculosis
Format: functional
Parameters: scale not given: direction of the effect not stated beside the values
Settings: 30 µM
All answers are understood in %, so give the number only.

Exercise: Entry Cc1cccc(CS(=O)(=O)NCC(O)Cc2ccccc2)c1 (stereo not given) needs its Percent Effect filled in; supply it.
Solution: -8.39

Exercise: Answer with reported Percent Effect of CCc1ccc(NC(=O)N2C[C@H]3C[C@H](C(=O)NC)[C@@H](C2)O3)cc1
Solution: 3.34

Exercise: Return the recorded Percent Effect value; entry: CCc1noc(C(C)N2CCN(Cc3noc(C)n3)CC2)n1 (stereo not given)
Solution: -5.46

Exercise: Quote Percent Effect reported for Cc1cnn(C2CN(CC(=O)NCc3ccccn3)C2)c1 please.
Solution: 5

Exercise: Name the recorded Percent Effect of the compound listed here: CCC(=O)N1CCC(O)(c2ncc(OC)nc2OC)CC1
Solution: 1.66

Exercise: Check the records and state Percent Effect for O=C1CC2(CCCCC2)CC(=O)N1CC(O)COCc1ccc(Cl)cc1 (stereo not given)
Solution: 0.607

Exercise: For the compound Cc1nc(Nc2ncccn2)cc(C2CCCN2CC(C)C)n1 (stereo not given) , report Percent Effect.
Solution: -0.75

Exercise: Could you please provide reported Percent Effect for CCn1cc(CN(C)S(=O)(=O)c2ccc(NC(C)=O)cc2)cn1 ? Thanks!
Solution: 2.64

Exercise: Name the recorded Percent Effect of the compound listed here: CCN1C(=O)C(C)(C)c2cc(NC(=O)c3ccco3)ccc21
Solution: 10.8

Exercise: Quote Percent Effect reported for CC(C)c1cc(C(=O)N2CCN(Cc3ccsc3)CC2)n[nH]1 please.
Solution: -1.06

Exercise: Return the recorded Percent Effect value; entry: O=c1cc(Cn2cncn2)nc2n1CCCN(CC1CC1)C2
Solution: -4.96

Exercise: Using the record for O=C(Nc1ccc(CCN2CCC(O)CC2)cc1)C1CCOCC1 , state its measured Percent Effect.
Solution: -1.86

Exercise: Check the records and state Percent Effect for Cc1nc[nH]c1CN(C)CC1CCCN(CCc2ccc(Cl)cc2)C1 (stereo not given)
Solution: 4.6

Exercise: Please supply the value of reported Percent Effect for the item CCC(NC(=O)C1CCN(S(=O)(=O)N(C)C)CC1)c1ccc(C)c(C)c1 (stereo not given)
Solution: 4.22

Exercise: Retrieve Percent Effect measured for CS(=O)(=O)NCC1CCCCN1C(=O)Nc1cccnc1N1CCCC1 (stereo not given) and print it.
Solution: -2.73
